Listing: MIC50 of selected molecules
# System: S. pneumoniae with reduced susceptibility to CIP
# method.summary: MIC by NCCLS microbroth dilution, 80 clinical isolates with CIP MIC ≧2 μg/ml
# Assay type: cell-based
# stated.conditions: Streptococcus pneumoniae, 80 isolates with CIP MICs ≧2 μg/ml; MIC50 of Table 1

| molecule | MIC50 |
| --- | --- |
| CO/N=C1\CN(c2nc3c(cc2F)c(=O)c(C(=O)O)cn3C2CC2)CC1CN (racemic) | 0.06 µg/mL |
| C[C@@H]1CN(c2c(F)c(N)c3c(=O)c(C(=O)O)cn(C4CC4)c3c2F)C[C@H](C)N1 | 0.5 µg/mL |
| Cc1c(F)c(N2CCNC(C)C2)cc2c1c(=O)c(C(=O)O)cn2C1CC1 (stereo not shown) | 0.5 µg/mL |
| COc1c(N2CCNC(C)C2)c(F)cc2c(=O)c(C(=O)O)cn(C3CC3)c12 (stereo not shown) | 0.5 µg/mL |
| C[C@H]1COc2c(N3CCN(C)CC3)c(F)cc3c(=O)c(C(=O)O)cn1c23 | 2 µg/mL |
| N[C@@H]1[C@H]2CN(c3nc4c(cc3F)c(=O)c(C(=O)O)cn4-c3ccc(F)cc3F)C[C@@H]12 | 0.5 µg/mL |
| COc1c(N2C[C@@H]3CCCN[C@@H]3C2)c(F)cc2c(=O)c(C(=O)O)cn(C3CC3)c12 | 0.25 µg/mL |
